Known viability of a selection of compounds
Assay: MRP1 drug-resistance reversers in H69AR cells – cell-based, doxorubicin co-treatment, pilot screen (AID 601)
Conditions: H69AR cells + 2 uM doxorubicin, CellTiter-Glo, 72 h; measured here: viability with 2 uM doxorubicin; at 10 µM; stronger effect = lower value
Outcome Measure: viability

>>> print(df.to_string())
                                   compound  result
0  COC(=O)c1cccc(NC(=O)C2COc3ccccc3O2)c1C (stereo unspecified)   91.4%
1  CC1CCCN(C(=O)C23CCC(C)(C(=O)C2)C3(C)C)C1 (stereo unspecified)   92.6%
2        CCOCCCNC(=O)CN1CCN(Cc2ccccc2C)C1=O   89.9%
3  CC(=O)OC1c2ccccc2C(=O)N1Cc1ccccc1Cl (stereo unspecified)   90.8%
4         NC(=O)c1cccc2c1C(=O)N(C1CCCCC1)C2   91.4%
5  CCN1CCN(C(CNC(=O)c2ccc3c(c2)OCO3)c2cccnc2)CC1 (stereo unspecified)     90%

All figures here come from PubChem BioAssay.
